target_or_test_system: Human immunodeficiency virus type 1 reverse transcriptase (Human immunodeficiency virus 1, UniProt Q72547)
Note: every record was labeled by where its IC50 sits among zone 1 = under 20 nM, zone 2 = from 20 nM up to 200 nM, zone 3 = 200 nM and over

Here's what some known entries look like.
>  <smiles_string>
CCOCn1c(Cc2cc(F)cc(F)c2)c(I)c(=O)[nH]c1=O

>  <assigned_class>
zone 3

$$$$
>  <smiles_string>
O=c1[nH]c(=O)n(COCc2ccccc2)c(Cc2cc(F)cc(F)c2)c1I

>  <assigned_class>
zone 1

$$$$
>  <smiles_string>
Cc1cc(C)cc(Cc2c(I)c(=O)[nH]c(=O)n2COCc2ccccc2)c1

>  <assigned_class>
zone 1

$$$$
>  <smiles_string>
CCOCn1c(Cc2cc(C)cc(C)c2)c(N(C)C)c(=O)[nH]c1=O

>  <assigned_class>
zone 2

$$$$
>  <smiles_string>
Cc1cc(C)cc(Cc2c(I)c(N)nc(=O)n2COCc2ccccc2)c1

>  <assigned_class>
zone 3

$$$$
>  <smiles_string>
Cc1cc(C)cc(Cc2c(Br)c(=O)[nH]c(=O)n2COCc2ccccc2)c1

>  <assigned_class>
zone 2

$$$$
>  <smiles_string>
CCOCn1c(Cc2cc(C)cc(C)c2)c(Br)c(=O)[nH]c1=O

>  <assigned_class>
zone 3

$$$$
>  <smiles_string>
CN(C)c1c(Cc2ccccc2)n(COCc2ccccc2)c(=O)[nH]c1=O

>  <assigned_class>
zone 1

$$$$
>  <smiles_string>
Cc1cc(C)cc(Cc2c(N(C)C)c(=O)[nH]c(=O)n2COCc2ccccc2)c1

>  <assigned_class>
zone 2

$$$$

Consider the record given below.
[ask] Determine which band this molecule sits in: `O=c1[nH]c(=O)n(COCc2ccccc2)c(Cc2ccccc2)c1Br`
[reply] zone 3
